Assign pEC50 to each entry below.
- test_system: hGIPR (Homo sapiens, UniProt P48546)
- Sequence (P48546 22-466): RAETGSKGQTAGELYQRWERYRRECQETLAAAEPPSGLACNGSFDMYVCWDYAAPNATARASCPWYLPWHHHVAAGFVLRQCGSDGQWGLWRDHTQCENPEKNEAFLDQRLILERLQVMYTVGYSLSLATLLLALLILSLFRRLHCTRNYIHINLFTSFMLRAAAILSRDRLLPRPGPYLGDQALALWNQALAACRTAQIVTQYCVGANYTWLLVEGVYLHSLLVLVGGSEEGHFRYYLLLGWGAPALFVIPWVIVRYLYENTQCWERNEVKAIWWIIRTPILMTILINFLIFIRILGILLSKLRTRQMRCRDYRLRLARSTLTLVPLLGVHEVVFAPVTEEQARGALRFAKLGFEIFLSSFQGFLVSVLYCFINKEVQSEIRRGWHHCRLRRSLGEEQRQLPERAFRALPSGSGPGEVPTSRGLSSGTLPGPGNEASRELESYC
- protocol_details: Functional cAMP activity in the presence of 1% HSA
- Format: cell-based
- settings: read-out: cAMP Rel EC50, hGIPR
Starred links: 1 amine or outer side, 2 acyl side, 3 side chain; linkers in the order of their positions; H or OH if unused. Non-standard residues stand in square brackets, D forms with d. Groups on a side chain read outwards from the residue. No end group written: not given here. *: point of attachment. C20 diacid = O=C(O)CCCCCCCCCCCCCCCCCCC(=O)*; C18 diacid = O=C(O)CCCCCCCCCCCCCCCCC(=O)*; αMePhe(2-F) = C[C@](N)(Cc1ccccc1F)C(=O)O; γGlu = O=C(O)[C@H](CCC(=O)[*:2])N[*:1]; αMe4Pal = C[C@](N)(Cc1ccncc1)C(=O)O; αMeY = C[C@](N)(Cc1ccc(O)cc1)C(=O)O; 4Pal = N[C@@H](Cc1ccncc1)C(=O)O; αMeL = CC(C)C[C@](C)(N)C(=O)O; αMeS = C[C@](N)(CO)C(=O)O; Orn = NCCC[C@H](N)C(=O)O; AEEA = NCCOCCOCC(=O)O; Aib = CC(C)(N)C(=O)O
A value of pEC50 is the negative decimal logarithm of a concentration given in moles per litre.

The measured pEC50 associated with H-Y[Aib]QGTFTSDFSK[αMeL]LDKK([AEEA-AEEA-γGlu-C18 diacid])AQ[Aib]AFIEYLLEGGPSSGAPPPSGS-NH2 [Example 142] reads 7.85

response.value for Y[Aib]QGT[αMePhe(2-F)]TSD[4Pal][αMeS]I[αMeL]LD[Orn]K([AEEA-γGlu-C18 diacid])AQ[αMe4Pal]EFI[dE][αMeY]LVEGGPSSGAPPPSGGGE-NH2 [Example 769] (field: pEC50) = 8.99

Measured pEC50 of H-Y[Aib]QGT[αMePhe(2-F)]TSDYSILLDKQAQK([AEEA-AEEA-γGlu-C20 diacid])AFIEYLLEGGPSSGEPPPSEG-NH2 [Example 345] : 7.82

Value of pEC50 reported for the substance H-Y[Aib]QGT[αMePhe(2-F)]TSD[4Pal]SI[αMeL]LD[Orn]K([γGlu-γGlu-C18 diacid])AQ[αMe4Pal][Orn]FI[dE][αMeY]LIEGGPSSGEPPPEGE-NH2 [Example 683] is 9.31

Entry under test: H-Y[Aib]QGTFTSD[4Pal]S[Orn][αMeL]LDKK([γGlu-γGlu-C18 diacid])AQ[αMe4Pal]AFIE[αMe4Pal]LIE[Aib]GPSSGEPPPSGSE-NH2 [Example 990] . Its pEC50 was 8.01
